system: UO-31 renal; assay: NCI tumour cell line growth inhibition, 48 h
metric: TGI

Name the value of TGI reported for COC(=O)c1c(O)c2c(c3c1OC(C)(C)CC3)OC(C)(C)CC2 when tested on UO-31 renal.
37.4 µM

Name the value of TGI reported for Nc1nonc1-c1nc2cnccc2n1C1CCCCC1 when tested on UO-31 renal.
> 25 µM

Name the value of TGI reported for COCn1cnc2c(=O)n(-c3ccc(C)cc3)c(=S)n(-c3ccc(C)cc3)c21 when tested on UO-31 renal.
> 100 µM

Further cases:
Name the value of TGI reported for COc1cc2c3c(c1O)N=NC=3CCN=2 when tested on UO-31 renal.
62.5 µM

Name the value of TGI reported for C[Si](C)(C)/N=C1\N2C(=NC1(C(F)(F)F)C(F)(F)F)Sc1ccccc12 when tested on UO-31 renal.
> 50 µM

Name the value of TGI reported for CCc1cccc(CC)c1NC(=O)C(=O)Cc1nc2ccccc2o1 when tested on UO-31 renal.
> 100 µM

Name the value of TGI reported for O=c1[nH]cnc2[nH]cc(CN3CCCCC3)c12 when tested on UO-31 renal.
> 100 µM

Name the value of TGI reported for Cc1cc(CN2CCCCC2)c(O)c(CN2CCCCC2)c1 when tested on UO-31 renal.
> 100 µM

Name the value of TGI reported for Clc1ccc(-c2ccc(CNCC3CCNCC3)o2)c(-c2ccccc2)c1 when tested on UO-31 renal.
2.76 µM

Name the value of TGI reported for CCOC(=O)Nc1nc2cc(OC)c(OC)c(OC)c2s1 when tested on UO-31 renal.
> 100 µM

Name the value of TGI reported for Nc1ccc(N)c2c1C(=O)c1ccccc1C2=O when tested on UO-31 renal.
> 100 µM

Name the value of TGI reported for CC(=O)O[C@H]1C(=O)[C@@]2(C)[C@H]([C@H](OC(=O)c3ccccc3)[C@]3(O)C[C@H](OC(=O)[C@H](OC(=O)OC[C@@H]4COC(C)(C)O4)[C@@H](NC(=O)c4ccccc4)c4ccccc4)C(C)=C1C3(C)C)[C@]1(OC(C)=O)CO[C@@H]1C[C@@H]2O when tested on UO-31 renal.
> 33.3 µM

---

system: A549 NSCLC
metric: GI50

Below, 5 molecules whose answers are already recorded.
Using the record for C=C(CN1CCc2ccccc2C1)c1ccc(CCC(=O)Nc2ccccc2N)cc1 , state its measured GI50.
41.3 µM

Using the record for CCN(CC)CCNc1ccc(C)c2sc3ccccc3c(=O)c12 (tested in a mixture with another compound) , state its measured GI50.
1.63 µM

Using the record for COc1ccc(/C=C/C(=O)c2ccc(NC(=O)CSc3nnc(-c4ccc(OC)c(OC)c4)n3-c3ccccc3)cc2)cc1 , state its measured GI50.
14.9 µM

Using the record for CC[C@H](Nc1cc(C)nc(N)n1)c1nc2cccc(NCc3ccc(C(=O)NO)cc3)c2c(=O)n1-c1ccccc1 , state its measured GI50.
3.79 µM

Using the record for NC1CCCCC1N.O=NN1CCCCCC1(P(=O)([O-])[O-])P(=O)([O-])[O-].[Na+].[Pt+2] , state its measured GI50.
> 100 µM

Further cases:
Using the record for CC(=O)N1CCN([C@H]2CCC[C@@H](NC(=O)c3cc4c(F)ccc(C)c4[nH]3)C2)CC1 , state its measured GI50.
10.8 µM

Using the record for C=CC(=O)N1CC2(CCC(n3nc(-c4ccc(Oc5ccccc5)cc4)c4c(N)ncnc43)CC2)C1 , state its measured GI50.
1.46 µM

Using the record for O=C(O)CN1CCN(CC(=O)O)CCN(CC(=O)O)CC1 , state its measured GI50.
3550 µM

Using the record for COc1cccc2c(Nc3ccc(C(=O)O)cc3)cc(-c3ccccc3)nc12 , state its measured GI50.
> 100 µM

Using the record for CC(C)OC(=O)Nc1ccc(-c2nc(-c3cccc(OCCN4CCOCC4)c3)c(-c3ccnc(Br)c3)[nH]2)cc1 , state its measured GI50.
3.49 µM

Using the record for CCCOC(=O)c1ccc2c(c1)[N+](=O)C(C(=O)c1ccccc1)=C(C(F)(F)F)[N+]2=O , state its measured GI50.
1.67 µM

Using the record for CCC[CH2][Sn]1([CH2]CCC)[O]CC(c2ccccn2)C[O]1 , state its measured GI50.
32.1 µM

Using the record for O=C1C=C(Nc2ccc([N+](=O)[O-])cc2)c2ccccc2C1=O , state its measured GI50.
3.96 µM

Using the record for CCCc1n(Cc2ccc3ccccc3c2)c2ccccc2[n+]1Cc1ccc2ccccc2c1 , state its measured GI50.
0.619 µM
